// read-out Ki, gathered for Muscarinic acetylcholine receptor M3 (Homo sapiens, UniProt P20309) from published studies
ENDPOINT: Ki (nM)

- O=C(CCCNC(=O)CNC(=O)CC(c1ccccc1)(c1ccccc1)c1ccccc1)NCC1CCCN(CC2CCCCC2)C1 (configuration not stated): 3.3
- C[N+]1=C(/C=C/C=C/C=C2/N(CCCCCC(=O)NCCN3CCN(CCCCC4CCN(CC(=O)N5c6ccccc6NC(=O)c6ccccc65)CC4)CC3)c3ccccc3C2(C)C)C(C)(C)c2ccccc21: 85.1
- O=C(CCN1CCC(OC(=O)Nc2ccccc2-c2ccccc2)CC1)Nc1cccc(CCNC[C@H](O)c2ccc(O)c3[nH]c(=O)ccc23)c1: 1
- CN(C)CCOC(=O)C1=C(Cc2cccnc2)c2ccccc2C1: 8130
- COc1ccc2c(c1)C(C(C)c1ccccn1)=C(CCN(C)C)C2 (configuration not stated): 3160
- CC(=O)N[C@@H](CCCCN)C(=O)N[C@@H](C)C(=O)N[C@@H](CCCNC(=N)N)C(=O)NCCN1CCN(CCCCC2CCN(CC(=O)N3c4ccccc4NC(=O)c4ccccc43)CC2)CC1: 100
- Cc1c(NC2CC2)nc(C2CC2)nc1N1CC=CCC1: 32
- CN(C)CCNC(=O)C1=C(Cc2cccnc2)c2ccccc2C1: 49000
- Cc1c(NC2CC2)nc(C2CC2)nc1N1CCC(CO)CC1: 501
- C=C1CCN(c2nc(C3CC3)nc(NC3CC3)c2C)CC1: 79
- O=C(NC[C@@H]1CCCNC1)[C@H]1CCCN1C(=O)[C@@H]1C[C@@H](O)CN1C(=O)CC(c1ccc(Cl)cc1)(c1ccc(Cl)cc1)c1ccc(Cl)cc1: 1.6
- C[N+]1(CCCC(O)(c2ccccc2)c2ccccc2)CCC(C2CC[N+](C)(CCCC(O)(c3ccccc3)c3ccccc3)CC2)CC1 (configuration not stated): 372
- NCCCCCN1CCC(OC(=O)Nc2ccccc2-c2ccccc2)CC1: 98
- CN1CCC(Oc2nc3ccccc3n2-c2ccccc2)CC1: 21
- Cc1c(N[C@H]2C[C@@H]2C)nc(C2CC2)nc1N1CCCCCC1: 7.9
- COc1ccccc1N1CCC2(CCN(CCCSc3nnc(-c4ccccc4)n3C)CC2)CC1: 514
- CC1Cc2ccccc2N1CC(=O)N1CCCC1 (configuration not stated): 79400
- CC1CCN(CCCN2C(=O)CCc3ccccc32)CC1: 14100
- CN(CCCN(C)CCCC(O)(c1ccccc1)c1ccccc1)CCCC(O)(c1ccccc1)c1ccccc1: 1740
- Nc1c(NC2CC2)nc(C2CC2)nc1N1CCCCCC1: 79
- CC1CCCN(C(=O)CCN2CCCc3ccccc32)C1 (configuration not stated): 2880
- CCCCCCCCCCCC(OC(=O)C(CCCCN(O)C(C)=O)NC(=O)c1coc(-c2ccccc2O)n1)C(C)C(=O)NC1CCCCNC1=O (configuration not stated): 1000
- NCCCCCCCCCCCCN1CCC(OC(=O)Nc2ccccc2-c2ccccc2)CC1: 2.6
- CC(C1=C(CCN2CCOCC2)Cc2ccccc21)c1ccccn1 (configuration not stated): 2750
- O=C(NC[C@@H]1CCCNC1)[C@H]1CCCN1C(=O)[C@@H]1CCCN1C(=O)CC(c1ccccc1)(c1ccccc1)c1ccccc1: 23
- C(#CCN1CCCC1)COc1cc(-c2ccccc2)on1: 4010
- CCN(CC)c1ccc(/C=C/c2cc[n+](CCC[N+](CC)(CC)CC)cc2)cc1: 24
- COc1cc(CNC[C@H](O)c2ccc(O)c3[nH]c(=O)ccc23)ccc1NC(=O)CCN1CCC(OC(=O)Nc2ccccc2-c2ccccc2)CC1: 1.58
- CC1(C)C(/C=C/C=C/C=C2/N(CCCCCC(=O)NCCN3CCN(CCCCC4CCN(CC(=O)N5c6ccccc6NC(=O)c6ccccc65)CC4)CC3)c3ccccc3C2(C)C)=[N+](CCCCS(=O)(=O)[O-])c2ccccc21: 67.6
- O=[N+]([O-])c1c(NC2CC2)nc(C2CC2)nc1N1CCCCCC1: 2510
- O=C1CCc2ccccc2N1CCCN1CCC(CCCCCCCCCC2CCN(CCCN3C(=O)CCc4ccccc43)CC2)CC1: 57.5
- O=C(CCN1CCCc2ccccc21)NCc1cccc(F)c1: 12900

* * *

pKi: −log10 of the molar value.
// read-out pKi, gathered for Muscarinic acetylcholine receptor M3 (Homo sapiens) from published studies
Mark yes for reported pKi of 7 or greater; mark no for anything smaller.

* CN1CCCC(OC(=O)N(c2ccccc2)c2ccccc2)C1 (centres undefined) | no
* C[C@H]1CN(C(=O)c2ccc(-c3cccc(OC(F)(F)F)c3)cc2)CCN1C(=O)c1ccc2cc[nH]c2c1 | no
* CN1CCC[C@@H]1[C@@H]1C[S+]([O-])[C@](c2ccccc2)(C2CCCCC2)O1 (stereo in doubt; (-)-7) | yes
* N=C(N)NCCC[C@@H](N)C(=O)NCCN1CCN(CCCC2CCN(CC(=O)N3c4ccccc4NC(=O)c4ccccc43)CC2)CC1 | no
* O=C(CCN1CCCc2ccccc21)Nc1ccc(O)cc1F | no
* NCCCCCCCCN1CCC(OC(=O)Nc2ccccc2-c2ccccc2)CC1 | yes
* CS(=O)(=O)Nc1cc([C@@H](O)CNCCCCCCCCCN2CCC(OC(=O)Nc3ccc(F)cc3-c3ccc(O)c(Cl)c3)CC2)ccc1O | yes
* Fc1cccc(F)c1-n1nc(OC2CCNCC2)c2ccccc21 | yes
* CC1CCc2ccccc2N1CC(=O)N1CCCCC1 (centres undefined) | no

* * *

// read-out log10 of Ki, gathered for Muscarinic acetylcholine receptor M3 (Homo sapiens, UniProt P20309) from published studies
ENDPOINT: log10 of Ki (log10 of the value in nM)

- COc1ccccc1CNCCCCCCNCCCCCCCCNCCCCCCNCc1ccccc1OC: 2.72
- O=C(CCN1CCCc2ccccc21)Nc1ccc(Cl)cc1: 4.03
- CCOC(=O)c1c(C)[nH]c2ccc3c(c12)CN1CCc2cc(OC)ccc2C1O3 (stereo not given): 2.86
- COc1c(CNC[C@H](O)c2ccc(O)c3[nH]c(=O)ccc23)ccc(NC(=O)CCN2CCC(OC(=O)Nc3ccccc3-c3ccccc3)CC2)c1Cl: -0.20
- COc1ccccc1N1CCN(CCCNC(=O)NN(Cc2ccccc2)c2ccccc2)CC1: 4.40
- O=C(CCN1CCCc2ccccc21)N1CCCCC1CO (stereo not given): 4.50
- Cc1ccc2c(c1)CCCN2CC(=O)N1CCCCC1: 4.82
- Cc1c(NC2CC2)nc(Cc2ccccc2)nc1N1CCCCCC1: 2.70
- Cc1c(NC2CCCCCC2)nc(C2CC2)nc1NC1CC1: 2.60
- CN1CC(OC(=O)N(c2ccccc2)c2ccccc2)C1: 2.53
- CN1CCC=C(c2nsnc2OCCCCCCCCCCCCO)C1: 1.90
- CS(=O)(=O)Nc1cc([C@@H](O)CNCCCCCCCCCN2CCC(OC(=O)Nc3ccccc3-c3ccc(O)c(F)c3)CC2)ccc1O: 0.70
- CC1(C)C(/C=C/C=C/C=C2/N(CCCCCC(=O)NCCNC(=O)CCc3cn(CCCCC4CCN(CC(=O)N5c6ccccc6NC(=O)c6ccccc65)CC4)cn3)c3ccc(S(=O)(=O)O)cc3C2(C)C)=[N+](CCCCS(=O)(=O)[O-])c2ccccc21.O=C(O)C(F)(F)F: 2.19
- O=C(NCCC1CCNCC1)[C@H]1CCCN1C(=O)[C@@H]1C[C@@H](O)CN1C(=O)CC(c1ccccc1)(c1ccccc1)c1ccccc1: 0.45
- Cc1ccc(NC(=O)OC2CCN(CCCCCCCCCNC[C@H](O)c3ccc(O)c(NS(C)(=O)=O)c3)CC2)c(-c2ccc(O)c(Cl)c2)c1: 0.68
- COc1ccc([C@H](Cc2c(Cl)c[n+]([O-])cc2Cl)OC(=O)c2ccc(CNC(C(=O)OCCN(C)C)c3ccccc3)s2)cc1OC (stereo in doubt; 92j): -0.40
- CC(C)NC(=O)[C@H]1CCCN1C(=O)[C@@H]1C[C@@H](O)CN1C(=O)CC(c1ccc(F)cc1)(c1ccc(F)cc1)c1ccc(F)cc1: 0.38
- c1ccc(CCN[C@H]2C3C4CC5C6C4CC3C6C52)nc1 (stereo not given in full): 3.33
- O=C(NCC1CCN(C2CCCC2)CC1)[C@H]1CCCN1C(=O)[C@@H]1C[C@@H](O)CN1C(=O)CC(c1ccc(F)cc1)(c1ccc(F)cc1)c1ccc(F)cc1: -0.29
- CCCN1CCC(OC(=O)Nc2ccccc2-c2ccccc2)CC1: 1.89
- COc1nsnc1OCCOCCOCCOc1nsnc1C1=CCCN(C)C1: 2.40
- COc1ccc(S(=O)(=O)c2ccc(C(=O)C3CCN(C4CCCCC4)CC3)cc2)cc1: 1.14
- COc1nsnc1OCCOCCOc1nsnc1C1=CCCN(C)C1: 1.70
- O=C(NC[C@H]1CCCNC1)[C@H]1CCCN1C(=O)[C@@H]1CCCN1C(=O)CC(c1ccccc1)(c1ccccc1)c1ccccc1: 2.00
- Cc1cc(/C=C/C=C/c2ccc(N(C)C)cc2)cc(C)[n+]1CCCCC1CCN(CC(=O)N2c3ccccc3NC(=O)c3ccccc32)CC1: 1.93
- CN1CCC=C(c2nsnc2OCCCCCCCCCCCCCC2CCN(CCCN3C(=O)CCc4ccccc43)CC2)C1: 1.65
- Cc1cc(C)c(NC(=O)OC2CCN(CCCCCCCCCNC[C@H](O)c3ccc(O)c(NS(C)(=O)=O)c3)CC2)c(-c2ccc(O)c(Cl)c2)c1: 1.58
- C=C(c1ccc(S(=O)(=O)c2ccc(OC)cc2)cc1)C1CCN(C2CCN(S(=O)(=O)CCC)CC2)CC1: 1.00
- CN(C)CCC1=C(Cc2cccnc2)c2ccccc2C1: 3.91
- C[N+]1(C)CCC[C@@H]1[C@@H]1C[S+]([O-])C(c2ccccc2)(c2ccccc2)O1.[I-] (stereo in doubt; (+)-11): 2.62
